What pKd was measured for each of the following?
Molecular target: T1, TX1BP3, O14907
T1 sequence (O14907 10-122, limits assumed, looked up): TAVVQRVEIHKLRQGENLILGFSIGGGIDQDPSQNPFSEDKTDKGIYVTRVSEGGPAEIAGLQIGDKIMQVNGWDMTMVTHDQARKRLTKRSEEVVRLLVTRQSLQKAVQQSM
Test: holdup assay
Parameters: key: below the threshold = too weak to quantify, mostly under pKd 3.1 to 4
Conditions: plain residues with an end cap or a label only (N-terminal biotin on a linker: ado-ado)
The answer should be a number; do not append a unit.

# lookup: pKd of YLEPVLSSEL [ATP2A2, P16615;P16615-3] 3.94

Same again, this time with YYKRPVQEWV [MMP24, Q9Y5R2] 3.87

Same again, this time with LSEFKAMDSI [CTNNA1, P35221] 3.47

Same again, this time with QGPVETESVV [SLC45A4, Q5BKX6] 3.81

Same again, this time with DDENIRTSDV [PLEKHA2, Q9HB19] 4.75
